Value source: the nanobody polyreactivity screen of Harvey et al. (2022)

assay: yeast display, Sf9 membrane polyspecificity reagent, FACS + sequencing; frameworks hold sequencing errors
Reported Property: polyreactivity (PSR sort gate)

Below: 8 sequences and their reported polyreactivity (PSR sort gate).
1) QVQLVESGGGLVQAGGSLRLSCAASGRTFLSYTMGWYRQAPGKERELVAAITTSGGSTNYADSVKGRFTISRDNAMNNVYLQMNSLKPEDTAVYYCADEWSVYFNDPRSDYWGQGTQVTVSS; high polyreactivity
2) QLQLVESGRGLVQAGGSLRLSCAGSGFIVGYNAMGSYRQAPGKDRELVAAISSGGSTYYADSVKGRFTISRVNAKNTVYLQMNSLKPEDTAVYYCAVELGYPIQSYALWWDFEYWGQGTQVTVSS; low polyreactivity
3) QVQLVESGGGLVQAGGSLRLSCADSGITFWKYAMGWYRQAPGKERELVAAISGRGGSTYYADSVKGRFTISRDNAKNTVYLQMNSLKPEDTAVYYCAKYPGISGYNYWGQGTQVTVSS; high polyreactivity
4) QVHLVESGGGIVQAGGSLRLSCAASGIIFHWYAMGWYRQAPGKERELVAAITQSGGSTSYADSVKGRFTISRDNAKNTVYLQMNSLKPEDTAVYNCSKDYAYTLWENYYAFNYWGQGTQVTVSS; low polyreactivity
5) QVQLVESGGGLVQAGGSLRLSCAASGRTFKFYAMGWYRQAPGKERELVATISSRGGNTFYADSVKGRFTISRDNAKNTVYLQMNSLIPEDTAVYYCAARRGVRKYPSAGYEYWGQGTQVTVSS; high polyreactivity
6) QVQLVESGGGLVQAGGSLLLICAASGSTFPYNAMGWYRQAPGKQRELVASITSRGGSTYYADSVKGRFTISRDNAKNTVYLQMNSLKPQDTAVYYCATPGDTYGWTRRRYYYWGQGTQVTVSS; high polyreactivity
7) QVQLVESGGGLVQAGGSLRLSCAASGHFFFYYPLGWYRQAPGKERELVARFTLSGTSTYYADSVKGRFTISRDNAKNSVYLQMNSLKPEDTAVYYCAAPYFTYGQDDDDYWRQGTQVTVSS; low polyreactivity
8) QVQLVESGGGLVKAGGSLRLSSAASGRTFKWYAMGWSRQAPGKERELVAVITGRGGSTYYADSVKGRFTISRDNAKNTVYLQMNSLKPEDTAVYSCAARGYSLVASSLYYYWGQGTQVTVSS; high polyreactivity

Query string: Name the reported polyreactivity (PSR sort gate) value associated with the sequence QVQLVESGGGLVQAGGSLRLSCAASGRTLYNYAMGWYRQAPGKERELVAAISSSGSTNYADSVKVRFTISRDNAKNTVYLQMNSLKPEDTAVYYCAKGYPWRYSIMDYWGQGTQVTVSS
Result string: low polyreactivity

Query string: Could you share which polyreactivity (PSR sort gate) value was measured for QVQLVESGGGLVQAGGSLRLSCAASGSIFYYYAMGWYRQAPGKERELVAAISWCGGSTYYADSVKGRFTISRDNAKNTVYLQMNSLKPEDTAVYYCAAQRRYGDDYWGQGTQVTVSS ?
Result string: high polyreactivity

Query string: Which polyreactivity (PSR sort gate) value belongs to QVQLVESGGGLVQAGGSLRLSCAASGSILSTYSMGCYRQAPGKERELVASISSNAGSTYYADSVKGRFTISRDNAKNTVYLQMNSLKPEDTAVYYCNKVYGGGTYDYWGQGTQVTVSS ?
Result string: low polyreactivity

====

experiment: yeast display, Sf9 membrane polyspecificity reagent, FACS + sequencing; frameworks hold sequencing errors
Reported Property: polyreactivity (PSR sort gate)

1) QGQLVESGGGLVQAGGSLRLSCAASGRIFVTYAMGWYRQAPGKERELVATINSGGSTYYADSVKGRFTISRDNAKNTVYLQMNSLKPEDTAVYYCNTDFGQAHTLSWYEDMDYWGQGTQVTVSS; low polyreactivity
2) QVQLVESGGGLVQAGGSLRLSCAASGSIFNYNAMGWYRQAPGKERELVAGITTSGGSTYYADSVKGRFTISRDNAKNTVYLQMNSLKPEDTAVYYCAAYDYISSTYFLDDYWGQGTQVTVSS; low polyreactivity

====

assay: yeast display, Sf9 membrane polyspecificity reagent, FACS + sequencing; frameworks hold sequencing errors
Reported Property: polyreactivity (PSR sort gate)

1. QVQLVESGGGLDQAGGSLRLSCAASGFTFYVYTMGWYRQAPGKERELVARITSRAGRTYYADSVKGRFTISRDNAKNTVYLQMNSLKPEDTAVYYCNTRDFSGYVHALSLYDYWGQGTQVTVSS; high polyreactivity
2. QVQLVESGGGLVQAGGSLRLSCAASGRTFSTNAMGWYRQAPGKEREFVAAITGSGGSTYYADSVKGRFTISRDNAKNTVYLQMNSLKPEDTAVYYCAKRSAWHTYRYGYWGQGTQVTVSS; high polyreactivity

====

experiment: yeast display, Sf9 membrane polyspecificity reagent, FACS + sequencing; frameworks hold sequencing errors
Reported Property: polyreactivity (PSR sort gate)

Please review the following examples before continuing.
1) QVQLVESGGGLVQAGGSLRLSCAASGRTFTQNAMGWYRQAPGKERELVAAISSGGRTYYADSVKGRFTISRDNAKNTVYLQMNSLKPEDTAVYYCNAGGGRRMYWGLGTQVTVSS; high polyreactivity
2) QVQHVESGGGLDQAGGSLRLSCAASGSILTRYVMGWYRQAPGKERELVAAISQRGGSTYYADSVTGRFTISRDTAKYTVFLQMNSLKPEDTAVYYCAAETRVTSRRRFDYWGQGTQVTVSS; high polyreactivity
3) QVQLVESGGGLVQAGGSLRLSCAASGRTIYFNVMGWYRQAPGKERELVAAISGGGSTNYADSVKGRYTISRDNAKNTVYLQMNSLKPEDTAVYYCATGYYSGLIDDYWGQGTQVTVSS; low polyreactivity
4) QVQLVESGGGLVQAGGSLRLSCAASGSIIRDNAMGWYRQAPGKERELVAAISVSGGRTYYADSVKGRFTISRDNAKNTVYLQMNSLKPEDTAVYYCAALRRPSYPGRFAELDYWGQGTQVTVSS; high polyreactivity

Query string: Return reported polyreactivity (PSR sort gate); argument: QVQLVESGGGLVHAGGRLRLSCAASGRTFGPYVMGWYRQSPGKERELVASISSADSTYYADSVKVRFTFSRDNAKNTFYLQMNSLKPEDTAVYYCAAEWYDYLYRMDYWGQGTQVTVSS
Result string: low polyreactivity

====

assay: yeast display, Sf9 membrane polyspecificity reagent, FACS + sequencing; frameworks hold sequencing errors
Reported Property: polyreactivity (PSR sort gate)

1. QVQLVESGGGLVQAGGSLRLSCAASGFTFARYAMGWYRQAPGKERELVAAIDRSGGSTYYADSVKGRFTISRDNAKNTVFLQMNSLKPEDTAVYYCNAVSSFTSPRYDYWGQGTQVTVSS; high polyreactivity
2. QVHRVESGGGLVQAGGSLRLSCAASGIIFARYAMGWYRPAPGKERELVAAITRRAVSTYYADSVKGRFTITRDNAKNSVYLQLISLKPEDTAVYYCAADRASYFTYAYGYWGQGTQVTVSS; high polyreactivity
3. QVQLVESGGGLVQAGGSLRLSCAASGSTFYENAKGWYRQAPGKERELVAGISRGGGSTYYADSVKGRFTISRDNAKNTVYLQMNSLKPEDTAVYYCARRPRYGVEYNYWGQGTQVTVSS; low polyreactivity
4. QVQLVESGGGLVQAGGSLRLSCAASGIIFYYNAMGWYRQAPGKERELVAAISSSGGSTSYADSVKGRFTISRDNAKNTVFLQMNSLKPEDTAVYYCAADSYPAYLGFVGFDYWGQGTQVTVSS; low polyreactivity

Okay, now this sequence:
Query string: For the sequence QVQLQESRGGLLQAGGSLCLSCAASGNIIFDGDMRWYRQAPGKEREFVAAINPGGSAYYADSVKGRLPLAAITHTVYLQLNSLNPPDTAVYYCAAKLFDVYGYYYWGQGTHVTVSS , what polyreactivity (PSR sort gate) is on record?
Result string: low polyreactivity

====

test: yeast display, Sf9 membrane polyspecificity reagent, FACS + sequencing; frameworks hold sequencing errors
Reported Property: polyreactivity (PSR sort gate)

Before answering, review these 8 worked examples.
1) QVQLVESGGGLVQAGGSLRLSCAASGSIFVGYAMGWYRLAPGKERELVASITNGDSTNYADSVKGRFTISRDNAKNTVYLQMNSLKPEDTAVYYCAADYYSFHPSGWYGYEYWGQGTQVTVSS; low polyreactivity
2) QVQLVESGGGLVQAGGSLRLSCAASGGIFGLYTMGWYRQAPGKERELVAAISKTGGSTYYADSVKGRFTISRDNAKHTVYLQMNSLKPEDTAVYYCAADGPYDDYEYWGQGTQVTVSS; high polyreactivity
3) QVQLVESGGGLVQAGGRLRFSCAASGNTFPHNTMGWYRKAPGKERELVSTNYADSVKGRFTISRDNAKNSVYLQMNSLKPEDTAVYYCHADGTFEYDYWGQGTQVTVSS; low polyreactivity
4) QVQLVESGGGLVQAGGSLRLSCAASGRIILVYAMGWYRQAPGKEREVVAAISSGGSTYYADSVKGRFTISRDTAKNPVYLQMNSLKPDDTAVYYSAARTAVGPIRSYWYDYWGQGTQVTVSS; low polyreactivity
5) QVQLVESGGGLVQAGGSLRLSCAASGFTFSSYAMGWYRQAPGKERELVAAITWGGGRTYYADSVKGRFTISRDNAKNTVYLQINSLKPEDTAVYYCNVPQWVSIWRKNNYWGLGTQVTVSS; high polyreactivity
6) QVQLVESGGGLVQAGGSLRLSCAASGFIFVRNTMGWYRQAPGKERELVASISRRGRTTYYADSVKGRFTISRDNAKNTVSLQMNSLKPEDTAVYYCNARYRVPKQGDYWGQGTQVTVSS; high polyreactivity
7) QVQLVESGGGLVQAGGSLRLSCAASGSTFAPYVMGCYRQAPGKQRELVAAIRFNGGRTHYADSVKGRFTISRDNAKNTVYLQMNSLKPEDTAVYYCAAEQWRRRNYWGQGTQVTVSS; high polyreactivity
8) QVQLVESGGGLVQAGGSLRLSCAASGLIFRHYAMGWYRQAPGKERELVDAITRSGGSTNYADSVKGRFTISRDNAKNTVYLQMNSLKPEDTAVYYCNAGIRYFVVGRSSYDYWGQGTQVTVSS; low polyreactivity

Query string: Field request: polyreactivity (PSR sort gate) | item: QVQLVESGGGLVQAGGSLRLSCAASGSIFVIYAMGWYRQAPGKERELVAAISRSGGRTYYADSVKGRFTISRDNAKTTVYLQMNSLKPEDTAVYYCAAEGSTYQGAPGVYYWGQGTQVTVSS
Result string: high polyreactivity

Query string: Give the measured polyreactivity (PSR sort gate) of QVQLVESGGGLVQAGGSLRLSCAASGFIFTRYAMGWYRQAPGKERELVAAISWSGGSTYYADSVKGRFTISRDNAKNTVYLQMNSLKPEDTAVYYCAADGSDSYDYWGQGTQVTVSS .
Result string: low polyreactivity

Query string: Returns the measured polyreactivity (PSR sort gate) for the input sequence. Input: QVQLVESGGRLVQAGGSLRLSCAASGSTFSYYDMGGYRQAPGKEMELVADISWSGGSTYYADSVKGRFTISRDNAKNTVYLQMNSLKPEDTAVYYCAARGYVRWYNRYDYWGQGTQVTVSS
Result string: low polyreactivity
